I'd appreciate it if you could supply CC50 values for the items below.
tested on: HepG2; test: Cytotoxicity against human HepG2 cells assessed as reduction in cell viability incubated for 72 hrs by CellTiter-Glo assay; assay type: toxicity, cell-based; conditions: hepg2, 72 h

Entry Cc1ccccc1N(C)C(=O)C(c1cncnc1)N(Cc1cccc(SC(F)(F)F)c1)C1CC1 (racemic) , tested on HepG2, has a reported CC50 of > 30 µM

Readout CC50 for CCCN(C(c1cccnc1)c1nnnn1-c1ccccc1C)C1(c2cccc(C(F)(F)F)c2)CC1 (racemic) , test system HepG2, was 10 µM

Record Cc1ccccc1N(C)C(=O)C(c1cccnc1)N(Cc1cccc(SC(F)(F)F)c1)C1CC1 (racemic) / HepG2, CC50 recorded as > 30 µM

Param item: Cc1ccccc1N(C)C(=O)C(c1cccnc1)N(Cc1cccc(OC(F)(F)F)c1)C1CC1 (racemic) ; param system: HepG2; output CC50: > 30 µM

Observed CC50 on HepG2, entry Cc1ncc(C(C(=O)N(C)c2ccccc2C)N(Cc2cccc(C(F)(F)F)c2)C2CC2)cn1 (racemic) , equals > 30 µM

// CC50 (HepG2) for CCCN(C(C(=O)N(C)c1ccccc1C)c1cccnc1)C1(c2cccc(C(F)(F)F)c2)CC1 (racemic) = > 15 µM

The value of CC50 recorded for CCc1ccccc1N(C)C(=O)C(c1cncnc1)N(Cc1cccc(C(F)(F)F)c1)C1CC1 (racemic) when tested on HepG2 reads > 25 µM

Cc1ccccc1N(C)C(=O)C(c1cncnc1)N(Cc1cccc(C(F)(F)F)c1)C1CC1 (racemic) on HepG2 gives CC50 = > 30 µM

Assay HepG2, sample Cc1ncccc1C(c1nnnn1C1CC1)N(C1CC1)C1(c2cccc(C(F)(F)F)c2)CC1 (racemic) , CC50 read: > 30 µM

###

tested on: Plasmodium falciparum; assay: Antiplasmodial activity against asexual blood stage Plasmodium falciparum 3D7 infected in human RBC assessed as parasite growth inhibition incubated for 72 hrs by SYBR Green dye based fluorescence assay; type: functional, organism-based; details: Plasmodium falciparum, 3D7, Erythrocyte, 72 h
Please respond with reported log10 EC50 for every item in the list.
Recorded EC50 (log10, nM)

log10 EC50 measured on CCc1ccccc1N(C)C(=O)C(c1cccnc1)N(Cc1cccc(C(F)(F)F)c1)C1CC1 (racemic) = 2.28

log10 EC50 reading for CCCN(C(C(=O)N(C)c1ccccc1C)c1cccnc1)C1(c2cccc(C(F)(F)F)c2)CC1 (racemic) : 2.32

Per the records, this compound ( Cc1ncc(C(C(=O)N(C)c2ccccc2C)N(Cc2cccc(C(F)(F)F)c2)C2CC2)cn1 (racemic) ) has log10 EC50 equal to 3.88

Cc1ccccc1N(C)C(=O)C(c1cncnc1)N(Cc1cccc(OC(F)(F)F)c1)C1CC1 (racemic) yielded log10 EC50 of 2.38

Query Cc1ccccc1N(C)C(=O)C(c1cccnc1)N(Cc1cccc(C(F)(F)F)c1)C1CC1 (racemic) yields log10 EC50 of 2.53

Query Cc1ccccc1N(C)C(=O)C(c1cncnc1)N(Cc1cccc(SC(F)(F)F)c1)C1CC1 (racemic) yields log10 EC50 of 2.41

Please fill in: log10 EC50 reported for CCCN(C(c1cncnc1)c1nnnn1-c1ccccc1C)C1(c2cccc(C(F)(F)F)c2)CC1 (racemic) = 2.49

For C[C@@H]1CC[C@H]2[C@@H](C)C(=O)O[C@@H]3O[C@@]4(C)CC[C@@H]1[C@]32OO4 the compound record lists log10 EC50 as 1.11
